Target: T1, Western Reserve B5 on cells infected with VVddeGFP Western Reserve virus (Vaccinia virus, Western Reserve strain, UniProt Q01227 18-317)
T1 construct: also called VV B5; WR
Assay: flow cytometry, SKOV3 cells infected with WR VV
Collected pEC50 values appear next to each entry.
pEC50 here is simply -log10 of the concentration when that concentration is written in mol/L.

Solved entries (count: 2):
A048-H4L1 (antibody, V domains shown) VH: EVQLLESGGGLVQPGGSLRLSCAASGFSFSSSYYMCWVRQAPGKGLEWIACIYTSSGSAYYADSVKGRFTISRTSSTTVTLQMNSLRAEDTAVYYCVRNAVGSSYYLYLWGQGTLVTVSS VL: DIQMTQSPSTLSASVGDRVTITCQASQSVAGNNYLSWYQQKPGKAPKLLIYSVSTLASGVPSRFSGSGSGTEFTLTISSLQPDDFATYYCQGYYNDGIWAFGQGTKVEIK; 9.06
A048-H3L1 (antibody, V domains shown) VH: EVQLLESGGGLVQPGGSLRLSCAASGFSFSSSYYMCWVRQAPGKGLEWIACIYTSSGSAYYADSVKGRFTISRDNSKNTLYLQMNSLRAEDTAVYYCVRNAVGSSYYLYLWGQGTLVTVSS VL: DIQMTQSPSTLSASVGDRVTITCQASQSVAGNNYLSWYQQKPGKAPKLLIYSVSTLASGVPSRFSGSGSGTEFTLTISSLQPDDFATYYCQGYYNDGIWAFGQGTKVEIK; 9.03

Fill in the blank: the reported pEC50 of A048-H2L1 (antibody, V domains shown) VH: EVQLLESGGGLVQPGGSLRLSCAASGFSFSSSYYMCWVRQAPGKGLEWIACIYTSSGSAYYANWAKGRFTISRTSSTTVTLQMNSLRAEDTAVYYCVRNAVGSSYYLYLWGQGTLVTVSS VL: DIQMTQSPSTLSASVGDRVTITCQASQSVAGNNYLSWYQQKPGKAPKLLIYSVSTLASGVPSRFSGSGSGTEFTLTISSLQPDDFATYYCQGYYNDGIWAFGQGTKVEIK is ____. 9.28

// repeat for A048-H2L4 (antibody, V domains shown) VH: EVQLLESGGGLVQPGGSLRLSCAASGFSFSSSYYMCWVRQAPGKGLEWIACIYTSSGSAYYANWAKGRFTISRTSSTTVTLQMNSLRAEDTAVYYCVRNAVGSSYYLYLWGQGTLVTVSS VL: AQVLTQSPSSLSASVGDRVTITCQASQSVAGNNYLSWYQQKPGKVPKLLIYSVSTLASGVPSRFSGSGSGTDFTLTISSLQPEDVATYYCQGYYNDGIWAFGQGTKVEIK and report 9.16

// repeat for A048-H4L3 (antibody, V domains shown) VH: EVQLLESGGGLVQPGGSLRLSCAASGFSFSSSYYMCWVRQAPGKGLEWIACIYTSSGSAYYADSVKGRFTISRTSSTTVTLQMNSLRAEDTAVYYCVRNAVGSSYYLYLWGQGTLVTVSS VL: DIQMTQSPSSLSASVGDRVTITCQASQSVAGNNYLSWYQQKPGKVPKLLIYSVSTLASGVPSRFSGSGSGTDFTLTISSLQPEDVATYYCQGYYNDGIWAFGQGTKVEIK and report 8.86

Source: patent US20240309070A1
